# target: MAO-A (Homo sapiens, UniProt P21397)
# Sequence (P21397 whole entry): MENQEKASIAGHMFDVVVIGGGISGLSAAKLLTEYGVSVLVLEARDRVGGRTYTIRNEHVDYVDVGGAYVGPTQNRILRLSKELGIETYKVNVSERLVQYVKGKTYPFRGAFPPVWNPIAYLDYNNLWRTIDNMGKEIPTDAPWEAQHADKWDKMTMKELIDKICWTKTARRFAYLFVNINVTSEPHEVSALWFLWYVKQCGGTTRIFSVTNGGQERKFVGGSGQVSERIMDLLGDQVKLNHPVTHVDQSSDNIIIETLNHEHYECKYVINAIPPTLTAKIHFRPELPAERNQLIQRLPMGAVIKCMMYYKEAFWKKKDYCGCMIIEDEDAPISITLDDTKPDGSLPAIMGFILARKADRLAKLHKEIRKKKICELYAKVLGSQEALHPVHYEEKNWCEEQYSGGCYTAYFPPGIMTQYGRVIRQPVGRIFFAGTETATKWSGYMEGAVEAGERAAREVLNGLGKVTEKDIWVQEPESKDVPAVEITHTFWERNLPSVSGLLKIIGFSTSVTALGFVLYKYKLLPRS
# protocol summary: Inhibition of recombinant MAO-A (unknown origin) at 1 uM by MAO-GloTM assay
endpoint name: inhibition at 1 µM

Using the record for COc1cc2c(cc1OC)-c1cc3ccc4c(c3c[n+]1CC2)OCO4 , report its inhibition at 1 µM. < 30%

---

# protocol summary: Cytotoxicity against human GES1 cells assessed as reduction in cell viability incubated for 72 hrs by MTT assay
# Assay type: toxicity, cell-based
endpoint name: IC50 at 72 h

Request the reported IC50 at 72 h associated with COc1ccc(-c2coc3cc(O)cc(O)c3c2=O)cc1 > 32 µM

---

# Test system: Raji
# protocol summary: Antiproliferative activity against human Raji cells assessed as reduction in cell viability incubated for 6 days by MTS assay
# Type: functional, cell-based
# measurement parameters: 144 h
endpoint name: IC50
Answer as a quantity: numeral, then unit.

Quick one: IC50 for C#CCSc1nc(Sc2nnnn2-c2ccccc2)c2nnn(Cc3ccccc3Cl)c2n1 ? 1400 nM
